Tested on: Oryctolagus cuniculus
assayOverview: Febrile responses of compound was measured in rabbit after iv injection at the dose of 10 mg/kg
Format: functional
outcomeMeasure: Delta T (°C)
Numbers only, in °C.

Measured Delta T of CCCCCOC(=O)[C@H](CCC(N)=O)NC(=O)[C@H](C)NC(=O)[C@@H](C)OC1C(O)C(CO)OC(O)C1NC(C)=O (stereo partly specified) : 0.13

Measured Delta T of CCCCCCOC(=O)[C@H](CCC(N)=O)NC(=O)[C@H](C)NC(=O)[C@@H](C)OC1C(O)C(CO)OC(O)C1NC(C)=O (stereo partly specified) : 0.13

Measured Delta T of COC(=O)[C@H](CCC(N)=O)NC(=O)[C@H](C)NC(=O)[C@@H](C)OC1C(O)C(CO)OC(O)C1NC(C)=O (stereo partly specified) : 0.1

Measured Delta T of CCCCCCCCCCOC(=O)[C@H](CCC(N)=O)NC(=O)[C@H](C)NC(=O)[C@@H](C)OC1C(O)C(CO)OC(O)C1NC(C)=O (stereo partly specified) : 0.23

Proceed to the following item.
Measured Delta T of CCCCOC(=O)[C@H](CCC(N)=O)NC(=O)[C@H](C)NC(=O)[C@@H](C)OC1C(O)C(CO)OC(O)C1NC(C)=O (stereo partly specified) : 0.3

---

For each entry below, report its Delta T value.
Test system: Oryctolagus cuniculus
assayOverview: Febrile responses of compound was measured in rabbit after iv injection at the dose of 3 mg/kg
Format: functional
# output: number + unit

Example results:
Measured Delta T of CCOC(=O)[C@H](CCC(N)=O)NC(=O)[C@H](C)NC(=O)[C@@H](C)OC1C(O)C(CO)OC(O)C1NC(C)=O (stereo not given in full) : 0.03 °C

Measured Delta T of CCCCCCCCCCOC(=O)[C@H](CCC(N)=O)NC(=O)[C@H](C)NC(=O)[C@@H](C)OC1C(O)C(CO)OC(O)C1NC(C)=O (stereo not given in full) : 0.17 °C

Measured Delta T of CC(=O)NC1C(O)OC(CO)C(O)C1O[C@H](C)C(=O)N[C@@H](C)C(=O)N[C@@H](CCC(N)=O)C(N)=O (stereo not given in full) : 0.2 °C

Measured Delta T of CCCOC(=O)[C@H](CCC(N)=O)NC(=O)[C@H](C)NC(=O)[C@@H](C)OC1C(O)C(CO)OC(O)C1NC(C)=O (stereo not given in full) : 0.43 °C

Measured Delta T of CCCCCCOC(=O)[C@H](CCC(N)=O)NC(=O)[C@H](C)NC(=O)[C@@H](C)OC1C(O)C(CO)OC(O)C1NC(C)=O (stereo not given in full) : 0.2 °C

Measured Delta T of COC(=O)[C@H](CCC(N)=O)NC(=O)[C@H](C)NC(=O)[C@@H](C)OC1C(O)C(CO)OC(O)C1NC(C)=O (stereo not given in full) : 0.23 °C

Hey, can you go through the list below and give me Delta T for every item?
1. CC(=O)NC1C(O)OC(CO)C(O)C1O[C@H](C)C(=O)N[C@@H](C)C(=O)N[C@@H](CCC(=O)O)C(=O)O (stereo not given in full)
2. CCCCCOC(=O)[C@H](CCC(N)=O)NC(=O)[C@H](C)NC(=O)[C@@H](C)OC1C(O)C(CO)OC(O)C1NC(C)=O (stereo not given in full)
3. CC(=O)NC1C(O)OC(CO)C(O)C1O[C@H](C)C(=O)N[C@@H](C)C(=O)N[C@@H](CCC(N)=O)C(=O)O (stereo not given in full)
4. CCCCOC(=O)[C@H](CCC(N)=O)NC(=O)[C@H](C)NC(=O)[C@@H](C)OC1C(O)C(CO)OC(O)C1NC(C)=O (stereo not given in full)

Out:
1. 0.8 °C
2. 0.03 °C
3. 0.9 °C
4. 0.26 °C

Values compiled from ChEMBL document CHEMBL1121936.
